Data origin: patent US20240190890A1

- testTarget: p38a activated, mitogen-activated protein kinase-activated protein kinase 2 (MAPKAP-K2 or MK2) enzyme (Homo sapiens (Human))
- protocolNotes: MK2 Omnia continuous-read kinase assay for compound potency
- Assay type: biochemical
- cond: [MK-2]=0.4 nM, [ATP]=10 μM, [ST3-Sox]=10 μM; room temperature
pIC50: −log10 of the molar value.
observedProperty: pIC50

compound | pIC50
C/C=C\c1ncc(F)c(-c2ccc3c(ccc4sc5c(c43)NC[C@@H](C)NC5=O)n2)n1 | 6.12
C=Cc1cc(-c2ccc3c(ccc4sc5c(c43)NC[C@@H](C)NC5=O)n2)c(COC)cn1 | 8.22
C=C(CN1CCOCC1)c1cc(-c2ccc3c(ccc4sc5c(c43)NC[C@@H](C)NC5=O)n2)ccn1 | 8.52
C=Cc1cc(-c2ccc3c(ccc4sc5c(c43)NC[C@@H](C)NC5=O)n2)cc(CN2CCOCC2)n1 | 7.85
[2H]C([2H])([2H])C(O)c1cnc(C=C)cc1-c1ccc2c(ccc3sc4c(c32)NC[C@@H](C)NC4=O)n1 (stereo partly shown) [Example I-243] | 8.00

(a) C#Cc1cc(-c2ccc3c(ccc4sc5c(c43)NC[C@@H](C)NC5=O)n2)c(Cl)cn1
(b) C=Cc1cc(N2CCN(C)CC2)nc(-c2ccc3c(ccc4sc5c(c43)NC[C@@H](C)NC5=O)n2)n1
Name the one with the greater pIC50 value, either a or b as given. Indicate your choice by writing its label.
b

###

- testTarget: p38a activated, mitogen-activated protein kinase-activated protein kinase 2 (MAPKAP-K2 or MK2) enzyme (Homo sapiens (Human))
- protocolNotes: MK2 Omnia continuous-read kinase assay for compound potency
- cond: [MK-2]=0.4 nM, [ATP]=10 μM, [ST3-Sox]=10 μM; room temperature
pIC50: −log10 of the molar value.
observedProperty: pIC50

Solved entries:
molecule | pIC50
C=Cc1cc(C)nn1-c1ccc2c(ccc3sc4c(c32)NC[C@@H](C)NC4=O)n1 [Example I-236] | 6.80
C#Cc1cc(N2CCN(C)CC2)nc(-c2ccc3c(ccc4sc5c(c43)NC[C@@H](C)NC5=O)n2)n1 [Example I-61] | 7.14
C=Cc1cncc(-c2ccc3c(ccc4sc5c(c43)NC[C@@H](C)NC5=O)n2)c1 [Example I-82] | 7.68
C=Cc1cc(-c2ccc3c(ccc4sc5c(c43)NC[C@@H](C)NC5=O)n2)cc(N2CC3(COC3)C2)n1 [Example I-238] | 8.22
[2H]C([2H])([2H])C(O)(c1cnc(C=C)cc1-c1ccc2c(ccc3sc4c(c32)NC[C@@H](C)NC4=O)n1)C([2H])([2H])[2H] [Example I-258] | 6.00

(a) C/C=C/c1cc(-c2ccc3c(ccc4sc5c(c43)NC[C@@H](C)NC5=O)n2)ccn1 [Example I-113]
(b) C[C@@H]1CNc2c(sc3ccc4nc(-c5nc(Cl)nc6c5CN(C)CC6)ccc4c23)C(=O)N1 [Example I-192]
Higher pIC50: a or b ? Pick one and reply with its label.
a
(a: 7.28, b: 6.59)

###

- testTarget: p38a activated, mitogen-activated protein kinase-activated protein kinase 2 (MAPKAP-K2 or MK2) enzyme (Homo sapiens (Human), UniProt P49137)
- Sequence (P49137 whole entry): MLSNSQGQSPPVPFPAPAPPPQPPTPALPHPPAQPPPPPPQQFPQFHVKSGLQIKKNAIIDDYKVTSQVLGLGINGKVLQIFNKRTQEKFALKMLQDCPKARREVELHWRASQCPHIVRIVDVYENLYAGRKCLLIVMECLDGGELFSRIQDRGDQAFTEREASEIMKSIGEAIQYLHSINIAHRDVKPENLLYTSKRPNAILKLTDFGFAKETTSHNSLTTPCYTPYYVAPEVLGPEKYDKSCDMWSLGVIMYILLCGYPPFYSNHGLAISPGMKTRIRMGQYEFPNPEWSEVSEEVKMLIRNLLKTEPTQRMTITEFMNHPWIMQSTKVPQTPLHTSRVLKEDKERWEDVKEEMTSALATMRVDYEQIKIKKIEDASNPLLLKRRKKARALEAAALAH
- protocolNotes: MK2 Omnia continuous-read kinase assay for compound potency
- cond: [MK-2]=0.4 nM, [ATP]=10 μM, [ST3-Sox]=10 μM; room temperature
pIC50: −log10 of the molar value.
observedProperty: pIC50

Field: example entries. Status: answers known.
compound | pIC50
C[C@@H]1CNc2c(sc3ccc4nc(-c5cc(Cl)ncc5C(F)F)ccc4c23)C(=O)N1 [Example I-93] | 6.62
C[C@@H]1CNc2c(sc3ccc4nc(-c5cc(Cl)nc(Cl)n5)ccc4c23)C(=O)N1 [Example I-58] | 7.80

(a) C#Cc1cc(-c2ccc3c(ccc4sc5c(c43)NC[C@@H](C)NC5=O)n2)cc(C2=CCN(C)CC2)n1 [Example I-102]
(b) C=C(F)c1ncc(F)c(-c2ccc3c(ccc4sc5c(c43)NC[C@@H](C)NC5=O)n2)n1 [Example I-31]
(c) C[C@@H]1CNc2c(sc3ccc4nc(-c5cc(CO)nc(Cl)n5)ccc4c23)C(=O)N1 [Example I-84]
(d) C[C@@H]1CNc2c(sc3ccc4nc(-c5nc(Cl)ncc5CO)ccc4c23)C(=O)N1 [Example I-75]
(e) COc1nnc(/C=C/C(F)(F)F)cc1-c1ccc2c(ccc3sc4c(c32)NC[C@@H](C)NC4=O)n1 [Example I-200]
Please put the entries in order of rising pIC50. Provide the ranking by listing each label in its place in the requested order.
e, d, c, b, a
(e: 6.00, d: 6.33, c: 7.41, b: 7.62, a: 8.10)
